Quick reference: IC50 of the listed items.
target-or-test-system: IκBα ubiquitinating enzyme (SCF complex: ROC1, Cullin1, Skp1, His-TrCP1; with E1, UbcH5b) (Homo sapiens, UniProt P62877+P63208+Q13616+Q9Y297)
Construct: His (polyhistidine); made in house; host or cells: insect cells (baculovirus) for the SCF complex and His-E1; E. coli for His-UBCH5b
Sequence (Q9Y297 whole entry): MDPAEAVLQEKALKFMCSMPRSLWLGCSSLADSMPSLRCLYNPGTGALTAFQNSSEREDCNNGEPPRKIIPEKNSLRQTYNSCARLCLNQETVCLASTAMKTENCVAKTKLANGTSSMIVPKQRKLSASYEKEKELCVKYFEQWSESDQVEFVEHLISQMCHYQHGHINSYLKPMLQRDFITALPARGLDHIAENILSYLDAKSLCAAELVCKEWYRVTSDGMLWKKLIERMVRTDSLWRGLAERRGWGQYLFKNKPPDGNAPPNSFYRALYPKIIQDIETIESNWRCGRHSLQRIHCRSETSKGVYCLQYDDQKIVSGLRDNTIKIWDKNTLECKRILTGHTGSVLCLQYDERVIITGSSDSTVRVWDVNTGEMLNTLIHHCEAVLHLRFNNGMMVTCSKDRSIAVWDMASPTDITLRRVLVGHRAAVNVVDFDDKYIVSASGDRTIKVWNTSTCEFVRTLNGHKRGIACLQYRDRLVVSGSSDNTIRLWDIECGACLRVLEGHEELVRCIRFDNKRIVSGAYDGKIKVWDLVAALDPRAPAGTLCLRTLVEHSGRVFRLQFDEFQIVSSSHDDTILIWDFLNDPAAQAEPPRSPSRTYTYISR
Sequence (Q13616 whole entry): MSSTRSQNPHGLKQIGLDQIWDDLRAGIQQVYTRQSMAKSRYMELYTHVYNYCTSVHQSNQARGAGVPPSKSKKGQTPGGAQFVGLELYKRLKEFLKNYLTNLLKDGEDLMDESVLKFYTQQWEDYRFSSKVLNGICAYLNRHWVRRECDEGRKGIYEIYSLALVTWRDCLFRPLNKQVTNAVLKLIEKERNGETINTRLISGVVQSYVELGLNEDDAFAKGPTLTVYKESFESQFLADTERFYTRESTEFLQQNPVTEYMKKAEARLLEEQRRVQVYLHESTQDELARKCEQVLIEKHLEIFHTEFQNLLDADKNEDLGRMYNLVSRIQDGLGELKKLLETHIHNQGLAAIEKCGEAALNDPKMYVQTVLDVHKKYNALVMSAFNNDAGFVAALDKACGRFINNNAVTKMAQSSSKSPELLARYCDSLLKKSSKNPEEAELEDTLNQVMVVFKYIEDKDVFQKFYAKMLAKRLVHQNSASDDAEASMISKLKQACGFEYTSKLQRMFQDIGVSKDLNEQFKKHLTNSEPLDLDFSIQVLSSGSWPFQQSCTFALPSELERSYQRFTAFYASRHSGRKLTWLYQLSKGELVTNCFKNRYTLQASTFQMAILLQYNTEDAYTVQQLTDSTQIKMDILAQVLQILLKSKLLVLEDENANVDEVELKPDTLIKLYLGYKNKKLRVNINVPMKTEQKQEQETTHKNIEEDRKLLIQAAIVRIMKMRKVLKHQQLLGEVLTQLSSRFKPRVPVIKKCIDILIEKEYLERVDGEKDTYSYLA
Sequence (P63208 whole entry): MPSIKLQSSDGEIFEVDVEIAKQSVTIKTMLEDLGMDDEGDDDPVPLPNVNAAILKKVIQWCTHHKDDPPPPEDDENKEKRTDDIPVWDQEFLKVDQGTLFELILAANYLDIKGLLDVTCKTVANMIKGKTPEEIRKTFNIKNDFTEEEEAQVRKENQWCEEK
Sequence (P62877 whole entry): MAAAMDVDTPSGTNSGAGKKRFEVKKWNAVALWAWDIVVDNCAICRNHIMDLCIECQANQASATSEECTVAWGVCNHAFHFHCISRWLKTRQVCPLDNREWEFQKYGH
assay-explanation: Measurement of ubiquitinating enzyme activity (IκBα ubiquitination, time-resolved fluorescence with Eu(K)-labeled ubiquitin and XL665-labeled anti-GST antibody)
Type: biochemical
condition-label: enzyme activity inhibition test, method (1), Table 5; read-out: EVALUATION

Use the examples below as a reference point.
{"columns": ["smiles-code", "IC50"],
 "data": [
  ["O=C1/C(=C\\c2ccc(-c3ccccc3F)o2)C(Cc2ccccc2)=NN1c1ccccc1", "< 40 µM"],
  ["COc1cc(C=C2C(=O)N(c3ccc(S(N)(=O)=O)cc3)N=C2C)ccc1OCC1CCCCC1", "< 40 µM"],
  ["COc1cc(/C=C2\\C(=O)N(c3ccc(S(N)(=O)=O)cc3)N=C2C)ccc1OCn1nnc2ccccc21", "10 to 20 µM"]
]}

[in] GET /values?readout=IC50&item= "CC1=NN(c2cccc(C(=O)N(C)CCO)c2)C(=O)/C1=C\c1ccc2c(c1)OCCO2"
[out] 10 to 20 µM

[in] Would you mind doing "CC1=NN(c2ccc(C(=O)N3CCC(CO)CC3)cc2)C(=O)/C1=C\c1ccc2[nH]ccc2c1" as well?
[out] < 10 µM

[in] Would you mind doing "CCOC(=O)c1ccc(COc2ccc(/C=C3\C(=O)N(c4cccc(C(=O)O)c4)N=C3C)cc2OC)o1" as well?
[out] < 40 µM

[in] Would you mind doing "CC1=NN(c2cccc(C(=O)O)c2)C(=O)/C1=C\c1ccc(N2CCN(C(=O)OC(C)(C)C)CC2)cc1" as well?
[out] 10 to 20 µM

###

target-or-test-system: IκBα ubiquitinating enzyme (SCF complex: ROC1, Cullin1, Skp1, His-TrCP1; with E1, UbcH5b) (Homo sapiens, UniProt P62877+P63208+Q13616+Q9Y297)
Construct: His (polyhistidine); made in house; host or cells: insect cells (baculovirus) for the SCF complex and His-E1; E. coli for His-UBCH5b
assay-explanation: Measurement of ubiquitinating enzyme activity (IκBα ubiquitination, time-resolved fluorescence with Eu(K)-labeled ubiquitin and XL665-labeled anti-GST antibody)
Assay type: biochemical
condition-label: enzyme activity inhibition test, method (1), Table 5; read-out: EVALUATION
pIC50: −log10 of the molar value.
recorded-metric: pIC50

[in] GET /values?readout=pIC50&item= "CCCCC1=NN(c2cccc(C(=O)O)c2)C(=O)/C1=C\c1ccc2[nH]ccc2c1"
[out] > 5.00

[in] Would you mind doing "O=C1/C(=C\c2ccc3ccccc3c2)C(C2CC2)=NN1c1ccccc1" as well?
[out] 4.70 to 5.00

[in] Would you mind doing "COCC1=NN(c2ccc(C(=O)O)cc2)C(=O)/C1=C\c1ccc2c(c1)OCO2" as well?
[out] 4.70 to 5.00

[in] Would you mind doing "COc1ccc(C2=NN(c3ccc(C(=O)O)cc3)C(=O)/C2=C\c2ccc(-n3ccnc3)cc2)cc1OC" as well?
[out] > 4.40

[in] Would you mind doing "O=C(O)c1cccc(N2N=C(c3ccoc3)/C(=C/c3ccc(-c4cnn(Cc5ccccc5)c4)o3)C2=O)c1" as well?
[out] > 5.00

[in] Would you mind doing "CC1=NN(c2cccc(C(=O)O)c2)C(=O)/C1=C\c1ccc(N2CCOCC2)cc1" as well?
[out] > 5.00

###

target-or-test-system: IκBα ubiquitinating enzyme (SCF complex: ROC1, Cullin1, Skp1, His-TrCP1; with E1, UbcH5b) (Homo sapiens, UniProt P62877+P63208+Q13616+Q9Y297)
Construct: His (polyhistidine); made in house; host or cells: insect cells (baculovirus) for the SCF complex and His-E1; E. coli for His-UBCH5b
assay-explanation: Measurement of ubiquitinating enzyme activity (IκBα ubiquitination, time-resolved fluorescence with Eu(K)-labeled ubiquitin and XL665-labeled anti-GST antibody)
Type: biochemical
condition-label: enzyme activity inhibition test, method (1), Table 5; read-out: EVALUATION
pIC50: −log10 of the molar value.
recorded-metric: pIC50

{"columns": ["smiles-code", "recorded-metric", "result"],
 "data": [
  ["CC1=NN(c2ccc(C(=O)O)cc2)C(=O)C1=Cc1ccc(N2CCC(N3CCCC3)CC2)cc1", "pIC50", "> 4.40"]
]}

[in] GET /values?readout=pIC50&item= "CC1=NN(c2ccc(S(N)(=O)=O)cc2)C(=O)/C1=C\c1ccc2c(c1)OCCO2"
[out] 4.70 to 5.00

[in] Would you mind doing "CCCCC1=NN(c2ccc(C(=O)O)cc2)C(=O)/C1=C\c1ccc2ccccc2c1" as well?
[out] 4.70 to 5.00

[in] Would you mind doing "CCCCC1=NN(c2ccccc2)C(=O)/C1=C\c1ccc2ccccc2c1" as well?
[out] > 4.40

[in] Would you mind doing "O=C(O)c1ccc(N2N=C(Cc3ccccc3)/C(=C/c3ccc(-n4ccnc4)cc3)C2=O)cc1" as well?
[out] 4.70 to 5.00

###

target-or-test-system: IκBα ubiquitinating enzyme (SCF complex: ROC1, Cullin1, Skp1, His-TrCP1; with E1, UbcH5b) (Homo sapiens, UniProt P62877+P63208+Q13616+Q9Y297)
Construct: His (polyhistidine); made in house; host or cells: insect cells (baculovirus) for the SCF complex and His-E1; E. coli for His-UBCH5b
assay-explanation: Measurement of ubiquitinating enzyme activity (IκBα ubiquitination, time-resolved fluorescence with Eu(K)-labeled ubiquitin and XL665-labeled anti-GST antibody)
Assay type: biochemical
condition-label: enzyme activity inhibition test, method (1), Table 5; read-out: EVALUATION
Quick reference: IC50 of the listed items.

Use the examples below as a reference point.
{"columns": ["smiles-code", "result"],
 "data": [
  ["CC1=NN(c2cccc(S(N)(=O)=O)c2)C(=O)/C1=C\\c1ccc(N2CCN(c3ccccc3)CC2)cc1", "< 10 µM"],
  ["CC1=NN(c2cccc(C(=O)O)c2)C(=O)/C1=C\\c1ccc(N2CCN(c3ccc(F)cc3)CC2)cc1", "< 10 µM"]
]}

[in] GET /values?readout=IC50&item= "CC1=NN(c2cccc(C(=O)O)c2)C(=O)/C1=C\c1ccc(-c2ccccc2F)o1"
[out] 10 to 20 µM

###

Quick reference: IC50 of the listed items.
target-or-test-system: IκBα ubiquitinating enzyme (SCF complex: ROC1, Cullin1, Skp1, His-TrCP1; with E1, UbcH5b) (Homo sapiens, UniProt P62877+P63208+Q13616+Q9Y297)
Construct: His (polyhistidine); made in house; host or cells: insect cells (baculovirus) for the SCF complex and His-E1; E. coli for His-UBCH5b
assay-explanation: Measurement of ubiquitinating enzyme activity (IκBα ubiquitination, time-resolved fluorescence with Eu(K)-labeled ubiquitin and XL665-labeled anti-GST antibody)
Assay type: biochemical
condition-label: enzyme activity inhibition test, method (1), Table 5; read-out: EVALUATION

[in] GET /values?readout=IC50&item= "CC1=NN(c2ccccc2)C(=O)/C1=C\c1ccc(-c2ccccc2F)o1"
[out] < 10 µM

###

target-or-test-system: IκBα ubiquitinating enzyme (SCF complex: ROC1, Cullin1, Skp1, His-TrCP1; with E1, UbcH5b) (Homo sapiens, UniProt P62877+P63208+Q13616+Q9Y297)
Construct: His (polyhistidine); made in house; host or cells: insect cells (baculovirus) for the SCF complex and His-E1; E. coli for His-UBCH5b
assay-explanation: Measurement of ubiquitinating enzyme activity (IκBα ubiquitination, time-resolved fluorescence with Eu(K)-labeled ubiquitin and XL665-labeled anti-GST antibody)
Assay type: biochemical
condition-label: enzyme activity inhibition test, method (1), Table 5; read-out: EVALUATION
Quick reference: IC50 of the listed items.

Use the examples below as a reference point.
{"columns": ["smiles-code", "recorded-metric", "result"],
 "data": [
  ["CC1=NN(c2ccc(C(=O)O)cc2)C(=O)C1=Cc1ccc(N2CCNCC2)cc1", "IC50", "10 to 20 µM"],
  ["CC1=NN(c2cccc(C(=O)O)c2)C(=O)/C1=C\\c1ccc2c(ccn2Cc2ccccc2)c1", "IC50", "< 10 µM"],
  ["O=C(O)c1ccc(N2N=C(c3ccoc3)/C(=C/c3ccc(N4CCC(CO)CC4)cc3)C2=O)cc1", "IC50", "< 10 µM"],
  ["CC1=NN(c2ccc(S(N)(=O)=O)cc2)C(=O)C1=Cc1cc2ccccc2n1C", "IC50", "< 40 µM"],
  ["O=C(O)c1ccc(N2N=C(c3ccncc3)/C(=C/c3ccc(N4CCCC4)cc3)C2=O)cc1", "IC50", "< 10 µM"]
]}

[in] GET /values?readout=IC50&item= "CC1=NN(c2cccc(C(=O)O)c2)C(=O)/C1=C\c1ccc2[nH]ccc2c1"
[out] < 10 µM

[in] Would you mind doing "COCC1=NN(c2ccc(C(=O)O)cc2)C(=O)/C1=C\c1ccc2[nH]ccc2c1" as well?
[out] < 10 µM

[in] Would you mind doing "CC1=NN(c2cccc(S(N)(=O)=O)c2)C(=O)/C1=C\c1ccc2occc2c1" as well?
[out] < 40 µM

[in] Would you mind doing "O=C(O)c1ccc(N2N=C(c3cccnc3)/C(=C/c3ccc(CO)o3)C2=O)cc1" as well?
[out] < 10 µM

[in] Would you mind doing "COc1cc(/C=C2\C(=O)N(c3ccc(C(=O)O)cc3)N=C2C)ccc1OCc1c(C)noc1C" as well?
[out] < 10 µM

All figures here come from patent EP1900728A1.
